# targetOrTestSystem: HRgpA-6H (Porphyromonas gingivalis) (UniProt P28784)
# procedureSummary: ELISA, FASEBA Fab on coated HRgpA-6H
measuredEndpoint: Ratio OD(Variant)/OD(WT)
Lab note: record the figure alone, no unit after it.

Exam item: Which Ratio OD(Variant)/OD(WT) reading was recorded for the binder KB001 mouse Fab VL F33H (Fab, V domains shown) VH: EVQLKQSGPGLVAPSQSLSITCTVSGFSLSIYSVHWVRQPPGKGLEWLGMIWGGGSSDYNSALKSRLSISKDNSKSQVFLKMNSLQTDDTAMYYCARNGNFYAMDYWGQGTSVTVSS VL: QIVLTQSPAIMSASLGERVTMTCTASSSVSSSHLHWYQQKPGSSPQLWIYSTSNLASGVPARFSGSGSGTSYSLTISSMEAEDAATYYCHQYHHSPYIYTFGGGTKLEIK ?
Marked response: 0.971

Exam item: Which Ratio OD(Variant)/OD(WT) reading was recorded for the binder KB001 mouse Fab VL N54A (Fab, V domains shown) VH: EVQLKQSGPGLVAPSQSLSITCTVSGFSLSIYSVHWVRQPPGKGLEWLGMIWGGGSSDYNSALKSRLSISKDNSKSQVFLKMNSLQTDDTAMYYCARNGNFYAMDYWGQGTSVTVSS VL: QIVLTQSPAIMSASLGERVTMTCTASSSVSSSFLHWYQQKPGSSPQLWIYSTSALASGVPARFSGSGSGTSYSLTISSMEAEDAATYYCHQYHHSPYIYTFGGGTKLEIK ?
Marked response: 0.99

Exam item: Which Ratio OD(Variant)/OD(WT) reading was recorded for the binder KB001 mouse Fab VL S32Q (Fab, V domains shown) VH: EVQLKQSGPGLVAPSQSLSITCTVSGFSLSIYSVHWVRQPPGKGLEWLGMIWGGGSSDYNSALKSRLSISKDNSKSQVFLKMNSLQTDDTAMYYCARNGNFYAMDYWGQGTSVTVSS VL: QIVLTQSPAIMSASLGERVTMTCTASSSVSSQFLHWYQQKPGSSPQLWIYSTSNLASGVPARFSGSGSGTSYSLTISSMEAEDAATYYCHQYHHSPYIYTFGGGTKLEIK ?
Marked response: 0.847

Exam item: Which Ratio OD(Variant)/OD(WT) reading was recorded for the binder KB001 mouse Fab VL T24Q (Fab, V domains shown) VH: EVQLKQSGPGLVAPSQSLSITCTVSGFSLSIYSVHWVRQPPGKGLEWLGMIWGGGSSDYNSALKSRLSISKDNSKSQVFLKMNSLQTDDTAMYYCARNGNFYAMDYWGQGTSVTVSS VL: QIVLTQSPAIMSASLGERVTMTCQASSSVSSSFLHWYQQKPGSSPQLWIYSTSNLASGVPARFSGSGSGTSYSLTISSMEAEDAATYYCHQYHHSPYIYTFGGGTKLEIK ?
Marked response: 0.995

Exam item: Which Ratio OD(Variant)/OD(WT) reading was recorded for the binder KB001 mouse Fab VL L55V (Fab, V domains shown) VH: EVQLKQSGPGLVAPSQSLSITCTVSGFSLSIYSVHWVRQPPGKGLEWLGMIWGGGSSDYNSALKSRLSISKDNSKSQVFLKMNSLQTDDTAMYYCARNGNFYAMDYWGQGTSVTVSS VL: QIVLTQSPAIMSASLGERVTMTCTASSSVSSSFLHWYQQKPGSSPQLWIYSTSNVASGVPARFSGSGSGTSYSLTISSMEAEDAATYYCHQYHHSPYIYTFGGGTKLEIK ?
Marked response: 0.901

src = patent US20230365662A1
